# reported Ki; entries follow
Molecular target: human CB1 receptor (Homo sapiens, UniProt P21554)
Sequence (P21554 whole entry): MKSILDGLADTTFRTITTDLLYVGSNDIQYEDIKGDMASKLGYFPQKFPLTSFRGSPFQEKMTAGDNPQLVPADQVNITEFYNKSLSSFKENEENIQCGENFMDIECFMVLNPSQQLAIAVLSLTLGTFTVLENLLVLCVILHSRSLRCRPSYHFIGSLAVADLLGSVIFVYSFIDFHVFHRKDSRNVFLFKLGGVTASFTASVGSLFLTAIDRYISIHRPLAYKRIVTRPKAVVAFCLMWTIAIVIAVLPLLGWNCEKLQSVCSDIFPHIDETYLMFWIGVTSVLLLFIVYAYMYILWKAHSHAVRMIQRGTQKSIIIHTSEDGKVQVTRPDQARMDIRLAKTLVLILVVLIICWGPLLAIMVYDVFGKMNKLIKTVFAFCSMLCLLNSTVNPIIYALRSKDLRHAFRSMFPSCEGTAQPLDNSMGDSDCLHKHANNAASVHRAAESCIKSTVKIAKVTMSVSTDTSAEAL
Test: Human CB1 receptor binding, [3H] CP-55,940 displacement on HEK cell membranes
Set-up: expressed in transfected cells; host or cells: HEK cells, doxycycline-induced; membrane preparation
Details: CB1 Ki
Respond with the bare value in nM.

Look over these answered cases.
# compound, Ki, nM
rows = [
    ("CC(C)(C)[C@H](NC(=O)c1nn(Cc2ccc(F)cc2)c2ccccc12)C(=O)N[C@@H](CO)C(N)=O [Example 230]", 6.5),
    ("CC(C)(C)[C@H](NC(=O)c1nn(Cc2ccc(F)cc2)c2ccccc12)C(=O)N[C@H](CO)C(=O)O [Example 235]", 222),
    ("CC(C)(C)C(NC(=O)c1nn(Cc2ccccc2)c2ccccc12)C(N)=O (stereo not drawn) [Example 27]", 0.33),
]

Query: Suppose we examine the compound CC(C)(C)[C@H](NC(=O)c1nn(Cc2ccc(C#N)cc2)c2ccccc12)C(=O)N[C@@H]1CNC(=O)C1 [Example 456] ; what Ki value has been reported?
Result: 43.8

Query: Suppose we examine the compound CC(C)(C)[C@H](NC(=O)c1nn(Cc2ccc(C#N)cc2F)c2c(F)cccc12)C(N)=O [Example 368] ; what Ki value has been reported?
Result: 2

Query: Suppose we examine the compound CC(C)(C)C(NC(=O)c1nn(Cc2ccc(C#N)cc2)c2c(Cl)cccc12)C(=O)NCCO (stereo not drawn) [Example 199] ; what Ki value has been reported?
Result: 1.32

Query: Suppose we examine the compound CC(C)(C)[C@H](NC(=O)c1nn(Cc2ccc(C#N)cc2)c2cc(F)ccc12)C(N)=O [Example 300] ; what Ki value has been reported?
Result: 5.85

Query: Suppose we examine the compound CC(C)(C)[C@H](NC(=O)c1nn(Cc2ccc(F)cc2)c2ccc(Cl)cc12)C(=O)NCCC(N)=O [Example 477] ; what Ki value has been reported?
Result: 28.3

Query: Suppose we examine the compound CC(C)(C)[C@H](NC(=O)c1nn(Cc2ccc(C#N)cc2F)c2c(F)cccc12)C(=O)NC[C@H](O)CO [Example 367] ; what Ki value has been reported?
Result: 41.4

Query: Suppose we examine the compound CC(C)(C)[C@H](NC(=O)c1nn(Cc2ccc(F)cc2)c2c(F)c(F)ccc12)C(=O)NCC(N)=O [Example 321] ; what Ki value has been reported?
Result: 1.58

Query: Suppose we examine the compound CC(C)(C)[C@H](NC(=O)c1nn(Cc2ccc(C#N)cc2)c2c(F)cccc12)C(=O)NCCS(C)(=O)=O [Example 221] ; what Ki value has been reported?
Result: 87.5

Query: Suppose we examine the compound CC(C)(C)[C@H](NC(=O)c1nn(Cc2ccc(C#N)cc2)c2ccccc12)C(=O)NCCO [Example 69] ; what Ki value has been reported?
Result: 18.8

Query: Suppose we examine the compound CC(C)(C)[C@H](NC(=O)c1nn(Cc2ccc(F)cc2)c2ccccc12)C(=O)N1CCOCC1 [Example 242] ; what Ki value has been reported?
Result: 0.36

Query: Suppose we examine the compound CC(C)(C)[C@H](NC(=O)c1nn(Cc2ccc(F)cc2)c2c(F)cccc12)C(=O)NCCS(N)(=O)=O [Example 348] ; what Ki value has been reported?
Result: 7.83
